The origin of these recorded values is the supplement of paper PMC10065799.

biological target: EPHB1 (UniProt P54762); assay: phosphorylation enrichment, bacterial display (enrichment ratio); higher = better substrate or ligand; peptides without Tyr show the background;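 also: 11-residue human phosphosite peptides and single-mutation variants displayed on the E. coli surface, counted by deep sequencing, each peptide's frequency after selection divided by its frequency in the unselected input library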;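 also: frequency after pTyr selection over input frequency; kinase dosed for 20-30% of maximal phosphorylation in three min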
Sequence (P54762 whole entry, looked up): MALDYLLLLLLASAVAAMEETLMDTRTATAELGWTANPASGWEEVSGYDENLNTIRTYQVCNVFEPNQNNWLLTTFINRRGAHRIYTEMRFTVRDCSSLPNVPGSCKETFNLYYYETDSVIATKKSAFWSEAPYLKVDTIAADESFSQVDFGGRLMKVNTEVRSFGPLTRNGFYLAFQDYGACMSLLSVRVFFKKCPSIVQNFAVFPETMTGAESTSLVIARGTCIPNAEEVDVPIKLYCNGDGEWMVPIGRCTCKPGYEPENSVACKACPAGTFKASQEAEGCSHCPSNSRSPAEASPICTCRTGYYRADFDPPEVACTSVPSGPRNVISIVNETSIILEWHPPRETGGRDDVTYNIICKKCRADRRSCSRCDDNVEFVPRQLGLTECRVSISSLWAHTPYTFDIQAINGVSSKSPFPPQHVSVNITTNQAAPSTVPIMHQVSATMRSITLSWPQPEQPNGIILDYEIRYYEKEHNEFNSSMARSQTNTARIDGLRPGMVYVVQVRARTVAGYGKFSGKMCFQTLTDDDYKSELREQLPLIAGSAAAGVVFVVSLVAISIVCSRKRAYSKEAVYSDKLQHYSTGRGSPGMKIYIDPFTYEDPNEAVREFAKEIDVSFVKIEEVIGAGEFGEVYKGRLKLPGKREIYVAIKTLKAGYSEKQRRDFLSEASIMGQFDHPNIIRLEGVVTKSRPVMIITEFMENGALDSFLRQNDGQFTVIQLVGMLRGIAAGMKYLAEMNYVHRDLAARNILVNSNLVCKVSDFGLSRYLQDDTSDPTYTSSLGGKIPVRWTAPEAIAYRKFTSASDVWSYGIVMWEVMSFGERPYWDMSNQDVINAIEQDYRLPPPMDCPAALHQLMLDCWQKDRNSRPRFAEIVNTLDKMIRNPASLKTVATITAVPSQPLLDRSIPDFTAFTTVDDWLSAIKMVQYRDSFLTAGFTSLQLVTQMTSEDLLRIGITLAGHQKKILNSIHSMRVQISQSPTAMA
PROPERTY_LABEL: phosphorylation enrichment
Format: numeric value only, no unit, no commentary.

Give the measured phosphorylation enrichment of FVPSFYHAFSG [ACTN4_Y265_S262P_YF] . 1.23

Give the measured phosphorylation enrichment of ALLTKYSRSSM [DSCC1_Y374_H376R] . 0.505

Give the measured phosphorylation enrichment of KDHPDYKYQAR [SOX10_Y171_P175A] . 0.427

Give the measured phosphorylation enrichment of RLMLQYDAVVN [SLC25A32_Y152] . 0.733

Give the measured phosphorylation enrichment of KAALSYVSEIG [BPIFB2_Y36] . 0.352

Give the measured phosphorylation enrichment of PESCFYKESWL [IQGAP2_Y630_L629F] . 0.772

Give the measured phosphorylation enrichment of TVVVPYEPPEV [TP53_Y220_S215T] . 0.548

Give the measured phosphorylation enrichment of LEQRPYRRGSE [KCNJ12_Y427_E430G] . 0.348

Give the measured phosphorylation enrichment of RDLHTYIMPAH [PNMT_Y256_R254H] . 0.754

Give the measured phosphorylation enrichment of HISGVYKLPPD [ANGPTL7_Y145_R140H] . 0.556

Give the measured phosphorylation enrichment of CTLLPYYSARV [DGKE_Y269] . 0.601

Give the measured phosphorylation enrichment of FLTQHYDAEPQ [ANG_Y38_K41E] . 0.413

Give the measured phosphorylation enrichment of CPFNLYAEQFS [HGD_Y40_L44F_YF] . 2.19

Give the measured phosphorylation enrichment of MLNTNYHLPPS [MT-ATP8_Y33] . 0.617

Give the measured phosphorylation enrichment of PSGPAYRGAVP [ASAH1_Y43_T42A] . 0.74

Give the measured phosphorylation enrichment of WHFTFYNELRV [ACTC1_Y93_H90Y_YF] . 0.784

Give the measured phosphorylation enrichment of HAEERYGKELV [PSTPIP1_Y53_Q48H] . 0.881

Give the measured phosphorylation enrichment of KGELCYMHSRV [ABCD1_Y281_R280C] . 0.597

Give the measured phosphorylation enrichment of LRYDSYSSYCN [SLC20A2_Y433] . 2.74

Give the measured phosphorylation enrichment of EEGESDVCSSD [DCX_Y125_Y125D] . 0.525

Give the measured phosphorylation enrichment of ATARPYRPYII [LRP5_Y1528] . 0.457

Give the measured phosphorylation enrichment of GGFTWYCDGKK [PROS1_Y266_C265W_YF] . 0.651

Give the measured phosphorylation enrichment of IMAYFYMCDSA [CASD1_Y382_R386S] . 0.845

Give the measured phosphorylation enrichment of RTMPDYTSFNT [EPHB2_Y912_I909M] . 0.724

Give the measured phosphorylation enrichment of DGMADCSDPSF [CDC5L_Y459_Y459C_YF] . 0.627

Give the measured phosphorylation enrichment of QDGYSYPSRQM [LDLR_Y847] . 0.49

Give the measured phosphorylation enrichment of HHIDYYKETTN [FGFR1_Y654_K656E] . 1.03

Give the measured phosphorylation enrichment of DAAEDYAEGVC [DHODH_Y194_R199C] . 0.801

Give the measured phosphorylation enrichment of FTFNSYFMHWV [IGHV1-46_Y51_T49N_YF] . 0.726

Give the measured phosphorylation enrichment of VNFDFYTVNLG [GFPT1_Y367_D366Y_YF] . 0.804

Give the measured phosphorylation enrichment of QLFGPYLRIHA [BSCL2_Y213_A212P_YF] . 1.13

Give the measured phosphorylation enrichment of SYKNKYGMVAQ [APOB_Y276] . 0.333

Give the measured phosphorylation enrichment of TSIGNYYKPWF [DHCR24_Y299_N294T] . 16.3

Give the measured phosphorylation enrichment of DDERGYRRVRC [GIGYF2_Y268_S273C] . 0.519

Give the measured phosphorylation enrichment of IGEGTYRTVFK [CDK5_Y15_G16R] . 0.362

Give the measured phosphorylation enrichment of KNRDVSSSDYF [USP24_Y2134_Y2134S] . 0.476

Give the measured phosphorylation enrichment of SGEKPYKCSVC [ZNF543_Y283_E287V] . 0.261

Give the measured phosphorylation enrichment of ALVFLSFCIIF [SIGLEC12_Y494_Y494S] . 0.329

Give the measured phosphorylation enrichment of SQQTFYPVSNM [ABCD1_Y181_R182P_YF] . 0.387

Give the measured phosphorylation enrichment of GLSDPYVKIHL [SYT2_Y309] . 0.425

Give the measured phosphorylation enrichment of AHPIIYDIIEA [PYKtide_D_2014] . 12.7

Give the measured phosphorylation enrichment of DLEKTYNTYRS [B4GALNT2_Y538_A533D] . 0.382

Give the measured phosphorylation enrichment of SSSGAYGGGFG [KRT19_Y61_YF] . 0.383

Give the measured phosphorylation enrichment of LNEWHYGGLTG [PGAM2_Y92_R90W] . 0.444

Give the measured phosphorylation enrichment of CWAVKYLQMVG [AVPR2_Y117_R113W] . 0.622

Give the measured phosphorylation enrichment of ASNFNYFFHRE [KCNA1_Y413_V408A_YF] . 0.511

Give the measured phosphorylation enrichment of DFPMGYPSYLA [TBCK_Y153_I151M] . 0.399

Give the measured phosphorylation enrichment of QRASDYFSQQM [GBP6_Y333_A331S_YF] . 1.56

Give the measured phosphorylation enrichment of GHLYAYDWISI [BEST1_Y227] . 6.51

Give the measured phosphorylation enrichment of SAVTGYRVDVI [FN1_Y937] . 0.368

Give the measured phosphorylation enrichment of MRNDLYQTPLH [NFKB1_Y582] . 1.19

Give the measured phosphorylation enrichment of DFSLKYPTDIP [APC_Y1183_A1184P_YF] . 0.528

Give the measured phosphorylation enrichment of CERLPYDASKW [FLT1_Y815] . 0.589

Give the measured phosphorylation enrichment of LAVNPYGPPDP . 0.461

Give the measured phosphorylation enrichment of LKGQVDILGRE [ASS1_Y359_Y359D] . 0.539

Give the measured phosphorylation enrichment of NKYVAYIESQG [KDM4B_Y34] . 0.554

Give the measured phosphorylation enrichment of RAILLYEYVGK [NATD1_Y45_V42I] . 33.9
